All values here come from patent US12486274B2.

- measured target: Full length human recombinant PIKFYVE (Homo sapiens (Human), UniProt Q9Y2I7)
- Sequence (Q9Y2I7 whole entry): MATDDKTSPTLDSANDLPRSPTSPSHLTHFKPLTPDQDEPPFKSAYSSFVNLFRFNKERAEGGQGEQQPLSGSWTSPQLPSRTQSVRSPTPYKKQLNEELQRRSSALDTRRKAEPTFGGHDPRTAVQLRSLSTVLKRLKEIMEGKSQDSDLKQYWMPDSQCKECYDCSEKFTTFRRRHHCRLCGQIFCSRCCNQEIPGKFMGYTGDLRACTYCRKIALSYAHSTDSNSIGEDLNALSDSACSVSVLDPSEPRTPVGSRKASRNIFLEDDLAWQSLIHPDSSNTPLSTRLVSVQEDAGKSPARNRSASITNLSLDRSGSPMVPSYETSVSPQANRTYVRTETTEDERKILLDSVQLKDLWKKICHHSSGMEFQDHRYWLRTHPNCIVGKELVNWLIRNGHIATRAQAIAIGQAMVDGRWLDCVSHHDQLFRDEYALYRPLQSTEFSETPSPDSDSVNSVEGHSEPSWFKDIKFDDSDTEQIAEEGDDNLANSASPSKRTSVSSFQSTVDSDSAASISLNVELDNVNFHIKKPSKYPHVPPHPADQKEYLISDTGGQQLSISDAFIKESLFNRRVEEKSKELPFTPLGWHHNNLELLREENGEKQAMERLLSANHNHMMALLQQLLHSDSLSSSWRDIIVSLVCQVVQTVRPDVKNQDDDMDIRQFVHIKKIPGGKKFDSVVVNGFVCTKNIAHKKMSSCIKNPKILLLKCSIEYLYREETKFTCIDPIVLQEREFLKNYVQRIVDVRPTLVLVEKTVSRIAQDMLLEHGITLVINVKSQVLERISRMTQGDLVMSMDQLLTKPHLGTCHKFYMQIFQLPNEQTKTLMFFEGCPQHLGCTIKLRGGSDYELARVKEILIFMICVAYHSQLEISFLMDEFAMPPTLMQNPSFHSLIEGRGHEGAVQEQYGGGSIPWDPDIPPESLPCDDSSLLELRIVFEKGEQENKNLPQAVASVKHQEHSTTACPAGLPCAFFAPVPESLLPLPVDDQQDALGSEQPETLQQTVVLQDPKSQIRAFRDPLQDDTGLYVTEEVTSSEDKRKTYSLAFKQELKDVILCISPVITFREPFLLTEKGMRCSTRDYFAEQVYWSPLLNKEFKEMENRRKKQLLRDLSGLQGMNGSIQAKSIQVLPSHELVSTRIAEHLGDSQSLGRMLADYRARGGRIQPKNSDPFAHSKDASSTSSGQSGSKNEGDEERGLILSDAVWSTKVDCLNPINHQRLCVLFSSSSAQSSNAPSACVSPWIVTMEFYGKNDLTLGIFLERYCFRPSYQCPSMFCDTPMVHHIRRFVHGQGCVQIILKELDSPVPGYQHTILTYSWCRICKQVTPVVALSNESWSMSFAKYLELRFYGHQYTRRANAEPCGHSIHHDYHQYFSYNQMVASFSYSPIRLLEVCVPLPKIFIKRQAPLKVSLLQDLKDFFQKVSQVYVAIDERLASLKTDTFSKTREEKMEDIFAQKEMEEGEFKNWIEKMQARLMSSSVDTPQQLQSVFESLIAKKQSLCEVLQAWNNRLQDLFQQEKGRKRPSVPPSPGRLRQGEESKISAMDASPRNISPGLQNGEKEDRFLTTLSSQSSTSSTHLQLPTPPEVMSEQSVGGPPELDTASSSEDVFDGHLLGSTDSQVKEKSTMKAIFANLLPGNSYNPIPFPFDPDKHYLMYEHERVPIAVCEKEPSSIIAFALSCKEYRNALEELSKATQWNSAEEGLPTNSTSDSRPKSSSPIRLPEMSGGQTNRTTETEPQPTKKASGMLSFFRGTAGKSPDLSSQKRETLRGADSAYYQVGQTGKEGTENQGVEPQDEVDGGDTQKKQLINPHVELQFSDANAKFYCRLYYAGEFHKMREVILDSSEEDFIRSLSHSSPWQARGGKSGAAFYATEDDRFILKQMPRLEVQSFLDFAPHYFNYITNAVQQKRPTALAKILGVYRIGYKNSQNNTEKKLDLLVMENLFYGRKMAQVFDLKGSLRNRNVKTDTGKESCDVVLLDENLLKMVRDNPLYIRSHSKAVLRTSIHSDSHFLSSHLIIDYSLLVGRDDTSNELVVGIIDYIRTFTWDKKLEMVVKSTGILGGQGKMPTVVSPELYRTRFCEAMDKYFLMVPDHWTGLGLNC
- experiment notes: Inhibition of PIKfyve (microfluidic electrophoresis kinase assay)
- measurement context: 2 nM enzyme, PI3P/PS substrate, 3 h at room temperature, 12 concentrations
pIC50: −log10 of the molar value.
Label rule, in plain words: pIC50 of 7 and up is criterion met, under 7 is criterion not met.

Consider the following illustrative entries.
compound: Cc1ccccc1-c1cc(Nc2cc(N3CCOCC3)n3nc(-c4ccncc4)cc3n2)n[nH]1 [Example 3]
class name: criterion not met
--
compound: Cc1cccc(-c2cnn(-c3cc(N4CCOCC4)n4nc(-c5cnc(N)nc5)cc4n3)c2)c1 [Compound 60]
class name: criterion not met
--
compound: c1ccc(-c2cnn(-c3cc(N4CCOCC4)n4nc(-c5cccnc5)cc4n3)c2)cc1 [Compound 79]
class name: criterion not met
--
compound: Cc1cccc(-c2ccn(-c3cc(N4CCOCC4)n4nc(C(=O)N5CCN(C)CC5)cc4n3)n2)c1 [Example 32]
class name: criterion not met
--
compound: Cc1cccc(-c2cc(Nc3cc(N4CCOCC4)n4nc(-c5ccncc5)cc4n3)[nH]n2)c1 [Example 4]
class name: criterion not met

Decide: is the reported value of pIC50 for Cc1cc(-c2cc3nc(-n4ccc(-c5ccccc5)n4)cc(N4CCOCC4)n3n2)n(C)n1 [Compound 85] equal to or greater than 7? criterion not met

Reported pIC50 at or above 7? Cc1cccc(-c2ccn(-c3cc(N4CCOCC4)n4nc(C(=O)NCC5COC5)cc4n3)n2)c1 [Example 43] criterion met

# check: pIC50 of C[C@H](NC(=O)c1cc2nc(-n3ccc(-c4ccccc4)n3)cc(N3CCOCC3)n2n1)C1CC1 [Compound 75] is greater than or equal to 7 criterion not met

Determine whether measured pIC50 meets or exceeds 7 for Cc1cccc(-c2cnn(-c3cc(N4CCOCC4)n4nc(-c5cccnc5N)cc4n3)c2)c1 [Compound 59] criterion not met

pIC50 >= 7 for c1ccc(-c2ccn(-c3cc(N4CCOCC4)n4nc(-c5ncccn5)cc4n3)n2)cc1 [Compound 63] ? criterion not met

API: above_or_equal(metric=pIC50, cutoff=7) for item Cc1ccn(-c2cc(N3CCOCC3)n3nc(-c4ccncc4)cc3n2)n1 [Example 16] criterion not met

Kindly determine if pIC50 recorded for Cc1cccc(-c2ccn(-c3cc(N4CCOCC4)n4nc(-c5cc(C)nn5CCN(C)C)cc4n3)n2)c1 [Compound 83] is above or exactly 7. criterion met

Determine whether this compound has pIC50 no lower than 7: CC(C)NC(=O)c1cc2nc(-n3cc(-c4ccccc4)cn3)cc(N3CCOCC3)n2n1 [Compound 80] criterion not met

Can c1ccc(-c2ccn(-c3cc(N4CCOCC4)n4nc(-c5ccncn5)cc4n3)n2)cc1 [Compound 68] be said to have pIC50 at or above 7? criterion not met

Form field: pIC50 at least 7? Entry: Cc1ccnc(-c2ccn(-c3cc(N4CCOCC4)n4nc(-c5cc(C)n(CCN(C)C)n5)cc4n3)n2)c1 [Compound 95] criterion not met

Could you tell me if the measured pIC50 of Cc1cc(-c2cc3nc(-n4ccc(-c5ccncc5)n4)cc(N4CCOCC4)n3n2)nn1CCN(C)C [Compound 93] reaches 7 or more? criterion not met

Identify whether the reported pIC50 of the following compound is 7 or greater: Cc1cccc(-c2ccn(-c3cc(N4CCOCC4)n4nc(-c5cn[nH]c5)cc4n3)n2)c1 [Compound 113] criterion met

Test whether the compound Cc1cccc(-c2ccn(-c3cc(N4CCOCC4)n4nc(C(=O)NS(C)(=O)=O)cc4n3)n2)c1 [Example 35] records pIC50 of 7 or higher. criterion not met

Is it the case that Cc1cccc(-c2ccn(-c3cc(N4CCOCC4)n4nc(-c5ccn(C)n5)cc4n3)n2)c1 [Compound 61] has pIC50 reaching or exceeding 7? criterion met
